What TGI was measured for each of the following?
system: M14 melanoma; assay: NCI tumour cell line growth inhibition, 48 h

CCCCCCCCCCCCCCCCCCNc1ccn(C2OC(CO)C(OP(=O)(O)OCC3CCC(n4ccc(N)nc4=O)O3)C2O)c(=O)n1 (configuration not stated) | > 100 µM
O=C(c1nsc(Cl)c1Cl)N1CCCCC1 | > 100 µM
NC(N)=NC(N)=NCCc1ccccc1 | > 100 µM
C=CC1=C(C)C2=NC1=CC1=NC(=C(CC)/C1=C/O)C=C1C=C3C(=O)C(C(=O)OC)C(=C4NC(=C2)C(C)C4CCC(=O)OC/C=C(\C)CCCC(C)CCCC(C)CCCC(C)C)C3=N1 (configuration not stated) (tested in a mixture with another compound) | > 100 µM
COc1cc2c(cc1OC)-c1c(cc(OC)c(OC)c1OC)C2=O | > 100 µM
C/C=C(/C)C(=O)OC1C=C(CO)C(=O)C(OC(=O)/C(C)=C\C)C1C(C)C (configuration not stated) | 2.26 µM
CC(C)(C)OC(=O)C(C1NC(C(=O)O)C(C)(C)S1)N1C(=O)c2ccccc2C1=O (configuration not stated) | > 100 µM
CC(=O)CN=C(C)NNc1ccc([N+](=O)[O-])cc1[N+](=O)[O-] | > 100 µM

Please state, for each entry, its recorded TGI.
1. C=C1CC2(OC1=O)c1ccccc1CCc1ccccc12
2. CC(=O)Nc1ccc(/C=c2\sc3nnc(/C=C/c4ccccc4)n3c2=O)cc1
3. O=C(c1cccs1)c1c(C(F)(F)F)n([O-])c2cc(F)c(F)cc2[n+]1=O
4. c1ccc(-c2cc(-c3cc(-c4ccccn4)[nH]n3)n[nH]2)nc1
5. COCCN1C2=CCCCC2=Nc2c(N)nc(N)nc21
6. CC(=O)N1c2ccccc2C23CCN4CC5=CCOC(O)C(C5CC42)C13 (configuration not stated)
7. CN(C)CC1(C)CC/C(=C\c2ccc3c(c2)OCO3)C1=O (configuration not stated)

["3.91 µM", "> 50 µM", "6.6 µM", "> 100 µM", "> 100 µM", "> 100 µM", "> 100 µM"]

Give TGI for all compounds that follow.
1. COC(=O)c1c2c(c(C)[n+]([O-])c1C)C(=O)C(NCc1ccc(F)c(Cl)c1)=CC2=O
2. CCC12C=CCN3CC[C@]4(C(=C(C(=O)OC)[C@@H]1Nc1ccn(C5OC(COC(C)=O)C(OC(C)=O)C5OC(C)=O)c(=O)n1)Nc1ccccc14)C32 (some centres not stated)

["3.12 µM", "8.51 µM"]

Record TGI for all entries; do not skip any.
1. CCCCCCCCCCCCCCCCCC(=O)NCCCNCCCNC(=O)CCCCCCCCCCCCCCCCC
2. Cc1cccc(C)c1NC(=S)/N=C/C1=C(O)c2ccccc2C1=O
3. C[C@H](CCc1nc(C#N)c(N)o1)[C@H]1CC[C@H]2[C@@H]3[C@@H](O)CC4C[C@@H](O)CC[C@]4(C)[C@H]3C[C@@H](O)[C@]12C (some centres not stated)

> 100 µM
> 100 µM
> 75.8 µM

----------
Exercise: state measured GI50 for each of the compounds provided.
tested on: DU-145 prostate; assay: NCI tumour cell line growth inhibition, 48 h

Nc1cc(C(F)F)c(-c2nc(N3[C@@H]4CC[C@H]3COC4)nc(N3[C@@H]4CC[C@H]3COC4)n2)cn1 | 426 nM

For every item in the list below, what is its measured GI50?
1. CCN(C)S(=O)(=O)Nc1cccc(Nc2ncnc3cc(NC(=O)CCl)ccc23)c1Cl
2. O=C1C(Nc2ccccn2)=C(I)C(=O)c2ncccc21
3. C=CC(=O)Nc1cc2c(Nc3ccc(OCc4ccccn4)c(Cl)c3)ncnc2cc1OCCN1CCOCC1

1. 3690 nM
2. 367 nM
3. 502 nM

Batch request: GI50 per item, same order as input.
1. Cc1ccc(NC2=C(Cl)C(=O)c3nc(C)ccc3C2=O)cc1
2. COC(=O)c1c2c(c(C)[n+]([O-])c1C)C(=O)C(NCc1ccc(F)c(Cl)c1)=CC2=O

1. 1470 nM
2. 2440 nM

----------
I'd be grateful if you could share measured log10 of TGI for these entries.
test system: TK-10 renal; test: NCI tumour cell line growth inhibition, 48 h
// stored as log10 of TGI expressed in µM

Recorded results for 4 compounds are shown here.
Cc1sc(N=Nc2c(O)[nH]c3ccccc23)nc1-c1ccccc1 | 1.77
O=C(N/N=C/c1cc2ccccc2c2ccccc12)c1cc(O)c(O)c(O)c1 | 1.49
N#Cc1ccc(-n2cnc(NC(=O)[C@H]3CCN(C#N)C3)c2)cc1 | 0.89
COc1ccc(OC)c(-c2nc3sccn3c2/C=C2/C(=O)Nc3ccccc32)c1 | 1.31

Quick one: give me log10 of TGI for each item below, same order please.
1. Cc1[nH]n(-c2ccccc2)c(=S)c1C(=O)c1ccccc1
2. Cc1cc(N2CCN(C)CC2)nc(NC2CCCC(Nc3ccnc4cc(Cl)ccc34)C2)n1 (stereo not given)

1: 1.97; 2: 0.56

----------
system: A498 renal; experiment: NCI tumour cell line growth inhibition, 48 h
Observed property: TGI (µM)
Give bare numbers, in µM.

Batch lookup, TGI per entry.
1. CC1=COC2=C(C)C(=O)C(=O)c3c(C)ccc1c32
2. CC(C)(C)SC1=CCC[C@@H](P(=O)(c2ccccc2)c2ccccc2)[C@@H]2CCC[C@@H]12
3. C=C1C(=O)C=C2C=C3C(=O)C(C)(C)C[C@]3(O)C12C (stereo partly specified)

1: 41.8; 2: 29.4; 3: 23.2

----------
system: SN12C renal; assay: NCI tumour cell line growth inhibition, 48 h
Observed property: GI50

Take a look at these entries with their results.
Cc1ccnc2c1NC(=O)c1cccnc1N2C1CC1 | > 100 µM
Cc1cc(N2CCN(C)CC2)nc(NC2CCCC(Nc3ccnc4cc(Cl)ccc34)C2)n1 (stereo not given) | 3.09 µM
O=C(N/N=C/c1cc2ccccc2c2ccccc12)c1cc(O)c(O)c(O)c1 | 4.99 µM

Look up GI50 for the entries below, preserving their order.
1. COc1ccc2cc(C(=O)/C=C/c3ccc(OC)c(OC)c3)ccc2c1
2. CCOC(=O)c1c(C)c2c(n1C)CSc1cc(S(=O)(=O)c3ccccc3)c(=O)[nH]c1-2

1. 13.5 µM
2. 27.6 µM

----------
test system: UACC-257 melanoma; assay: NCI tumour cell line growth inhibition, 48 h
Where a SMILES comes first, the peptide text is derived from it. [ ]: non-standard residue; d: D form. 2Nal = N[CH](Cc1ccc2ccccc2c1)C(=O)O
Record form. Attribute: GI50. Fill in for each entry.

CCOC(=O)c1c(C)c2c(n1C)CSc1cc(S(=O)(=O)c3ccccc3)c(=O)[nH]c1-2 | 34.5 µM
CC(NC(=O)C(N)Cc1ccccc1)C(=O)NC(Cc1ccc(O)cc1)C(=O)NC(Cc1c[nH]c2ccccc12)C(=O)NC(CCCCN)C(=O)NC(C(=O)NC(C)C(=O)NC(Cc1ccc2ccccc2c1)C(N)=O)C(C)C (stereo not drawn) (H-FAYWKVA[2Nal]-NH2; configuration not given here) | > 100 µM
CN(C)CCCC1(c2ccc(F)cc2)OCc2cc(-c3ccc4cc[nH]c4c3)ccc21 (stereo not drawn) | 1.96 µM
COc1ccc2[nH]cc(/C=C3\C(=O)Nc4ccccc43)c2c1 | 14.3 µM
N#Cc1ccc(-n2cnc(NC(=O)[C@H]3CCN(C#N)C3)c2)cc1 | 1.94 µM

Take each entry in turn and give its GI50.
1. NC(=O)c1c(OCc2c(F)cc(Br)cc2F)nsc1NC(=O)NCCCCN1CCCC1
2. Cc1ccnc2c1NC(=O)c1cccnc1N2C1CC1
3. CCOC(=O)c1cc(C(=O)c2cc(OC)cc(OC)c2)n2ncccc12

1.85 µM
> 100 µM
67.1 µM

----------
system: PC-3 prostate; experiment: NCI tumour cell line growth inhibition, 48 h; in the data active = GI50 below about 0.43 µM; inactive = the rest
Response enum: True for active, False for inactive

See these solved cases before continuing.
NC(=O)c1c(OCc2c(F)cc(Br)cc2F)nsc1NC(=O)NCCCCN1CCCC1 | False
Nc1cc(C(F)F)c(-c2nc(N3[C@@H]4CC[C@H]3COC4)nc(N3[C@@H]4CC[C@H]3COC4)n2)cn1 | True
C[C@]12CC[C@H]3[C@@H](C[C@@H]4SC(Nc5cccc(F)c5)=N[C@@]45CC(=O)CC[C@]35C)[C@@H]1CCC2=O | False
CCOC(=O)c1cc(C(=O)c2cc(OC)cc(OC)c2)n2ncccc12 | False
Cc1cc(N2CCN(C)CC2)nc(NC2CCCC(Nc3ccnc4cc(Cl)ccc34)C2)n1 (centres undefined) | False
N#CC1=C(N)Oc2c(sc3c(F)cccc23)C1c1ccc([N+](=O)[O-])cc1 (centres undefined) | True

Returns: the outcome recorded for COc1ccc(OC)c(-c2nc3sccn3c2/C=C2/C(=O)Nc3ccccc32)c1 in this assay.
True

Please answer likewise for CN(C)CCCC1(c2ccc(F)cc2)OCc2cc(-c3ccc4cc[nH]c4c3)ccc21 (centres undefined)
False

// query: Clc1ccc2c(NCCNc3nc(-c4ccccc4)cc(-c4ccccc4)n3)ccnc2c1
False
